The measured values listed here are drawn from patent US20240293512A1.

# In vitro activity compared with native peptide (%) vs GIP (cAMP EC50) per entry
Biological target: T1, human GIP receptor (human, UniProt P48546 22-466)
T1 sequence (looked up): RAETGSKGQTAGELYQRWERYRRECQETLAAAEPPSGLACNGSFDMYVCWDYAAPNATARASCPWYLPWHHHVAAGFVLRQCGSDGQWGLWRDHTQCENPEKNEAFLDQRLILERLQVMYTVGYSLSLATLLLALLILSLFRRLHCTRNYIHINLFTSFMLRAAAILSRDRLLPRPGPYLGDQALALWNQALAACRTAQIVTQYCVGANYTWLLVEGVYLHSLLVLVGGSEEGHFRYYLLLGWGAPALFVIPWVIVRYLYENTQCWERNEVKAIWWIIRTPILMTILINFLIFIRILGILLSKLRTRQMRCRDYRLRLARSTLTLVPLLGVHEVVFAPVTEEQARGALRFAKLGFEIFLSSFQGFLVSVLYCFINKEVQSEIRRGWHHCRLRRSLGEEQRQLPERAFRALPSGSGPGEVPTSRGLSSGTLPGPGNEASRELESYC
Test: cell-based or functional assay
Bridge positions count the residues as written; N and C are the ends. Square brackets hold non-standard residues; d marks the D form. Ends that are not written are not given here. * marks the point of attachment. Acetyl(2-(4-imidazolyl)) = O=C(Cc1c[nH]cn1)*; Aib = CC(C)(N)C(=O)O
Assay metric: In vitro activity compared with native peptide (%) vs GIP (cAMP EC50)

Binder: [Acetyl(2-(4-imidazolyl))]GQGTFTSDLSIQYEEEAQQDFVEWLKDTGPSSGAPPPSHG [triple agonist of SEQ ID NO: 20]
Censoring qualifier: <
Reported value: 0.1

Binder: Y[Aib]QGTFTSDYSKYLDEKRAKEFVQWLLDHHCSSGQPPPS (not fully specified (bridges)) [triple agonist of SEQ ID NO: 43]
Censoring qualifier: =
Reported value: 3.7

Binder: {Acetyl(2-(4-imidazolyl))}-[Aib]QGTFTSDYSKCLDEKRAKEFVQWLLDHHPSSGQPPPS (bridge 15-19) [triple agonist of SEQ ID NO: 74]
Censoring qualifier: =
Reported value: 1
